- Target: porcine pancreatic PLA2 (Sus scrofa)
- Construct: Purified porcine pancreatic PLA2 was obtained from Sigma; purchased Sigma (St. Louis, Mo.); host or cells: porcine pancreas
- Sequence (P00592 23-146): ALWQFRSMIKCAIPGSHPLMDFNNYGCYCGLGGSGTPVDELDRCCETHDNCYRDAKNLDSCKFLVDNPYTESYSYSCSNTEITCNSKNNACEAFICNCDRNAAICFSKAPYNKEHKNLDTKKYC
- Assay Notes: Millimolar Calcium-Dependent PLA2 Assay (porcine pancreatic PLA2, [14C]-oleate labeled E. coli substrate)
- Type: biochemical
pIC50: −log10 of the molar value.
Quantity Kind: pIC50

Form field pIC50, entry CCCCCCCCCCCC#Cc1cccc(C=C(P(=O)(O)O)P(=O)(O)O)c1 : < 4.00

Form field pIC50, entry CCCCCCCCCCCC#Cc1ccccc1C=C(P(=O)(O)O)P(=O)(O)O : < 4.00
